# Method summary: amyloid nucleation score (Sup35N fusion, yeast selection) (log enrichment); library NNK1; higher = more nucleation; inactive = no reads after selection;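 also: zero at mode of non-aggregating sequences after 7 days selection at 30°C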
Listing of entries alongside the reported amyloid nucleation score.
Note: the reply should be a number with no unit written.

Exercise: Fill in the blank: the reported amyloid nucleation score of NPMLLPSEPSS is ____.
Key: -0.181

Exercise: Same lookup for KFKKFGSSDGLDCDRYILVG , please.
Key: -0.799

Exercise: Similarly, SHLLGINCCCA ?
Key: 0.131

###

Known amyloid nucleation score of a selection of substances
# Method summary: amyloid nucleation score (Sup35N fusion, yeast selection) (log enrichment); library NNK2; higher = more nucleation; inactive = no reads after selection
Just the number, please.

Consider the worked cases shown below.
substance=SAFSFTSLSKYGLFSFCVVR outcome_measure="amyloid nucleation score" observed_measurement=-0.274
substance=TLYFYFRLSW outcome_measure="amyloid nucleation score" observed_measurement=0.276

Exercise: What measured amyloid nucleation score goes with LLSRPTGQLVVPSQGLHFCY ?
Key: 0.242

Exercise: And then NQYLSMRTAHSGEVYQPLVF , what is it?
Key: 0.859

Exercise: Please give the result for CNSIDMTHKVTLKMSFIFIE too.
Key: 6.7

Exercise: Note, next up: RCFIHRGGLLVVLV
Key: -0.98

Exercise: Now the substance FYDSVKEISVLSCVWGDILE
Key: 7.24

Exercise: Please answer likewise for LCHTRCDRNSSCLL
Key: -0.56

Exercise: Request: RFQELMTK
Key: 0.626

Exercise: Could you do the same for IRWNTTFGFDSEAPTCCATS , please?
Key: 0.026

###

# Method summary: amyloid nucleation score (Sup35N fusion, yeast selection) (log enrichment); library NNK2; higher = more nucleation; inactive = no reads after selection
// bucketize amyloid nucleation score: LOW = under -0.2, MEDIUM = from -0.2 up to 0.6, HIGH = 0.6 and over

Examples from the recorded data:
substance=FRRRRIFYYITEHVLLCMLK class_assignment=LOW
substance=LRTTGLHFSSRLMVFTLNWI class_assignment=LOW
substance=SLEGLSCFTLANCLLR class_assignment=MEDIUM

Exercise: For WKHMSRR , which amyloid nucleation score bin applies?
Key: HIGH

Exercise: And for NLRSYIRGSLFGFCSRLWEN ?
Key: HIGH

Exercise: Can you check LRPLIIPGSKRHCNTVL next?
Key: MEDIUM

Exercise: Moving on to RQLAFFLIYPHGASVTYWAP
Key: LOW

Exercise: Another substance to check: SFVAAEQIMASIEW
Key: HIGH

###

# Method summary: amyloid nucleation score (Sup35N fusion, yeast selection) (log enrichment); library NNK3; higher = more nucleation; inactive = no reads after selection
Outcome measure: amyloid nucleation score

In the examples that follow, each entry is paired with its recorded amyloid nucleation score.
substance=FLCTLSMWYCIDRTFMYMCS observed_measurement=-0.053
substance=YFFVSWFRCMGPILSFTRVV observed_measurement=inactive
substance=FLRWFWRD observed_measurement=0.785
substance=RDPSQNTSKHLSNVAFISLY observed_measurement=inactive
substance=KPCSRVSWNVVQVV observed_measurement=inactive
substance=IHIGTPFRGSHTFASVRRK observed_measurement=inactive
substance=LRVRLCSGSSRIWLEVLVRR observed_measurement=inactive
substance=CFRCFGKGCHILAYGVYC observed_measurement=inactive

Exercise: Reported amyloid nucleation score for SHECHSFLHVLFNVACSWGG : what is it?
Key: inactive

Exercise: And RVVCAD ?
Key: inactive

###

# Method summary: amyloid nucleation score (Sup35N fusion, yeast selection) (log enrichment); library NNK2; higher = more nucleation; inactive = no reads after selection
Entry class follows amyloid nucleation score: I: < 0.08; II: ≥ 0.08 and < 1; III: ≥ 1

substance=PGCHWISASCGDVLDKGNTG class_assignment=II
substance=CSSSNINRFS class_assignment=III
substance=YYVHQTHVSCLLAVLCPSLK class_assignment=III

Exercise: // return the class label for GFWEGRILG
Key: III

Exercise: // same read-out, input: FVTAKSYNVLISKGYRKELL
Key: I

Exercise: Input DIVANDKMMIIRVIMGTWCH
Key: II

Exercise: Same again, this time with PWRRISMVVSWQYIEFIKYL
Key: I

Exercise: Try ITFRTYILPDSWIRPRTFEK next.
Key: III

Exercise: Now consider GTWMWETFCRLTFVFGIRRG and answer again.
Key: I

Exercise: Note, next up: ELSRAGYEWCLGSHTSLVSS
Key: II

Exercise: What do you have for RMSVWNNECTWTSSVSVHPK ?
Key: III

Exercise: Same thing, different substance: PVWGSTCWFDVTWVRFKLFW
Key: III

Exercise: Same again, this time with GVFSLRKGGCRDW
Key: I

Exercise: Note, next up: CSFLSLY
Key: I

Exercise: Check IIVNMKLVDTS too.
Key: II

Exercise: Moving on to QRCRFPYDTGSSTHSWTEVG
Key: II

Exercise: Next up: RVIGVWILIAWQRQV
Key: II

Exercise: Another substance to look at: SIANYGFVLNNHIRFFRSSG
Key: III

Exercise: Would you kindly repeat that for YVNDIRSKNPALEHEGDL ?
Key: I

Exercise: Another substance to look at: FRLPNVLRDGSA
Key: III

Exercise: EVLRKQIVRTRAVQVHFCLT , same question.
Key: III

Exercise: Next record, please: SNGKYG
Key: III

Exercise: Next record, please: CVIYVKVIIMPVSIVDVGSV
Key: I

Exercise: Likewise for NHKAIYLRPSSTNPEILSRA ?
Key: III

Exercise: # repeat for ICRLFVR
Key: I

Exercise: # repeat for VSFATRRSSNNILTGW
Key: I

Exercise: // repeat for HLSFGFRRNRR and report
Key: II

###

# Method summary: amyloid nucleation score (Sup35N fusion, yeast selection) (log enrichment); library NNK1; higher = more nucleation; inactive = no reads after selection
Outcome measure: amyloid nucleation score

// worked examples, amyloid nucleation score included
substance=LGLGQSGRV outcome_measure="amyloid nucleation score" observed_measurement=-0.15
substance=LLNCLWDKMWTGLVRCIKNG outcome_measure="amyloid nucleation score" observed_measurement=-0.075
substance=RNWLLDTNSLQVMSPYIFEV outcome_measure="amyloid nucleation score" observed_measurement=-0.41
substance=NSFSDSHRWKPGRRNRCKRG outcome_measure="amyloid nucleation score" observed_measurement=1.07

Exercise: Look up amyloid nucleation score: HVKACLVVASYP
Key: 0.94

Exercise: What would you report for WVRSNKGQAGSG ?
Key: 0.886

Exercise: Further, for NRIFCLYSFCCFHENWVGLY ?
Key: 4.96

Exercise: Thanks! And TPNQSRFPNAVMTDTVTSFS ?
Key: 0.214

Exercise: Next: DRFLETICSEGSRPGSGN
Key: 0.917

Exercise: Continue with HLKRRLKFDSGTSYQLVQKV
Key: 0.177

Exercise: Follow-up entry: IGTGCSDILRIWRECVNLRG
Key: 1.5

Exercise: Now try SYFGYNVIMEIHTI .
Key: -0.122

Exercise: Can you handle CCDSPSRRSRAKECRMKYSM next?
Key: -1.32

###

# Method summary: amyloid nucleation score (Sup35N fusion, yeast selection) (log enrichment); library NNK2; higher = more nucleation; inactive = no reads after selection
Binary call on amyloid nucleation score: Satisfied from 0.2 upward, Not satisfied beneath that.

// known answers, use as guide
substance=RMDTGNLYVFLMKCFNMAYA class_assignment=Satisfied
substance=HCSFCVIVGFNRCDALGSHR class_assignment=Satisfied
substance=IVMCTRRDIA class_assignment="Not satisfied"
substance=KITCVITNALCSLTERADR class_assignment=Satisfied

Exercise: Confirm if amyloid nucleation score reported for the substance NNMPFCNYEAFNFYNGMSAF is 0.2 or above.
Key: Not satisfied

Exercise: Thanks! And THEIFMHSYY ?
Key: Not satisfied

Exercise: Another substance: SFRRSE
Key: Not satisfied

###

# Method summary: amyloid nucleation score (Sup35N fusion, yeast selection) (log enrichment); library NNK1; higher = more nucleation; inactive = no reads after selection
Outcome measure: amyloid nucleation score

Record excerpt, results attached:
chain=KKAIPACHVVSFTMRLSFLD outcome_measure="amyloid nucleation score" observed_measurement=0.225
chain=IVDYVGCLRHYECYGWQPWG outcome_measure="amyloid nucleation score" observed_measurement=0.225
chain=ISYSYVTIIA outcome_measure="amyloid nucleation score" observed_measurement=-0.181
chain=IIRRGSRSFYIFMVTFKRRN outcome_measure="amyloid nucleation score" observed_measurement=0.996

We now examine a further sequence.
Exercise: Requested field: amyloid nucleation score. Item: PERNNEYHVMLTRHRCHQGC
Key: -1.41

From: the supplement of paper PMC12042874
